Tested on: U251 CNS
Choose the fitting class; nothing outside 1 (yes) = active, 0 (no) = inactive is accepted.

Sample answers from the record:
[
  {
    "COMPOUND": "CNCc1ccc(C)c(NC(=O)c2ccc(Nc3nc(-c4ccccc4)c4ccccc4n3)cc2)c1",
    "LABEL": "0 (no)"
  },
  {
    "COMPOUND": "Cc1nn(-c2ccccc2)c2ncc3c(c12)C(=O)N(Cc1ccccc1)C3=O",
    "LABEL": "0 (no)"
  },
  {
    "COMPOUND": "C=C1C(=O)O[C@H]2[C@H]1CC/C(Cn1cc(CNC(=O)c3cc4ccccc4[nH]3)nn1)=C\\CC[C@@]1(C)O[C@@H]21",
    "LABEL": "0 (no)"
  },
  {
    "COMPOUND": "COc1ccc2c(c1)CCC1C2CCC2(C)C1CC[C@@]2(O)CNC(=O)/C=C/c1ccc(O)c(O)c1 (stereo partly drawn)",
    "LABEL": "0 (no)"
  }
]

What did this assay record as the result for COc1cc(C2C3=C(COC3=O)N(CCO)c3cc4c(cc32)CCC4)cc(OC)c1OC (stereo not drawn) ? 1 (yes)

Now the compound COc1c(C)cnc(Cn2cnc3c(Cl)nc(N)nc32)c1C 1 (yes)

Now the compound CCCCCCCCCCCCOC1C(C(COC2OC(C(O)CO)C3OC(C)(C)OC23)OC(=O)Nc2ccc([N+](=O)[O-])cc2)OC2OC(C)(C)OC21 (stereo not drawn) 0 (no)

Now the compound CN(C)c1ccc(/C=C/C(=O)c2ccc(Nc3nc(Nc4ccc(F)cc4)nc(Nc4ccc(Cl)cc4)n3)cc2)cc1 0 (no)
